Collected literature values of IC50 measured for Neuropeptide Y receptor type 5 (Mus musculus).
measured_metric: IC50 (nM)

>>> observed_value("N#Cc1ccccc1C(=O)N1CC[C@H](C(=O)Nc2cccc(-c3ccccc3F)c2)C1")
0.33
>>> observed_value("CS(=O)(=O)NC[C@H]1CC[C@H](Nc2nc(-c3ccc(F)cc3)no2)CC1")
1.4
>>> observed_value("N#Cc1ccccc1C(=O)N1CCC(C(=O)Nc2ccc(-c3ccccc3)cc2)CC1")
0.26
>>> observed_value("Cc1[nH]c(C2CCN(C(=O)c3ccccc3C#N)CC2)nc1-c1ccccc1")
0.35
>>> observed_value("CC(C)(C)S(=O)(=O)NC[C@H]1CC[C@H](Nc2nc(C3(F)CC(F)(F)C3)no2)CC1")
1.9
>>> observed_value("CCS(=O)(=O)NC[C@H]1CC[C@H](Nc2nc(-c3ccccc3)no2)CC1")
0.34
>>> observed_value("N#Cc1ccccc1C(=O)N1CCC(C(=O)Nc2cccc(Oc3ccccc3)c2)CC1")
0.38
>>> observed_value("CC(=O)N1CCC[C@@H]1C(=O)N1CCC(C(=O)Nc2cccc(-c3ccccc3F)c2)CC1")
0.47
>>> observed_value("CC(C)n1c(=O)oc2cc(NC(=O)[C@H]3CC[C@@H](Oc4cc(Cl)ccc4C#N)CC3)ccc21")
0.56
>>> observed_value("O=C(Nc1ccc(OC(F)F)cc1)C1CCN(C(=O)Cn2c(-c3ccccc3)noc2=O)CC1")
0.29
>>> observed_value("CCS(=O)(=O)NC[C@H]1CC[C@H](Nc2nc(-c3cc(F)cc(F)c3)no2)CC1")
0.23
>>> observed_value("CC(C)(C)S(=O)(=O)N[C@H]1CC[C@H](c2[nH]cc(-c3ccccc3)c2C#N)CC1")
0.22
>>> observed_value("CC(C)S(=O)(=O)NC[C@H]1CC[C@H](Nc2nc(C3(C)CC(F)(F)C3)no2)CC1")
0.61
>>> observed_value("CC(C)(C)S(=O)(=O)N[C@H]1CC[C@H](c2nc(-c3ccccc3)c[nH]2)CC1")
0.85
>>> observed_value("CC(C)S(=O)(=O)NC[C@H]1CC[C@H](Nc2nc3cc(F)ccc3o2)CC1")
0.88
>>> observed_value("CC(C)(C)S(=O)(=O)NC[C@H]1CC[C@H](Nc2nc(-c3ccc(F)cn3)no2)CC1")
0.9
>>> observed_value("CCC(C)S(=O)(=O)NC[C@H]1CC[C@H](Nc2nc3ccc(F)cc3o2)CC1 (some centres unmarked)")
0.69
>>> observed_value("CC(C)S(=O)(=O)NC[C@H]1CC[C@H](Nc2nc(C(F)(F)F)co2)CC1")
3.6
>>> observed_value("O=C(N[C@H]1CC[C@@H](C(=O)Nc2cccc(-c3ccccc3F)c2)CC1)c1ccccc1")
4.1
>>> observed_value("CC(C)S(=O)(=O)NC[C@H]1CC[C@H](Nc2nc(C(F)(F)C(F)(F)F)no2)CC1")
0.65

###

Across several studies, compounds have been characterized by their IC50 on Neuropeptide Y receptor type 5 (Mus musculus, UniProt O70342); a selection follows.
measured_metric: IC50 (nM)

>>> observed_value("CC(C)S(=O)(=O)NC[C@H]1CC[C@H](Nc2nc3ccc(F)cc3o2)CC1")
0.68
>>> observed_value("CCS(=O)(=O)NC[C@H]1CC[C@H](Nc2nc(C3(F)CCCC3)no2)CC1")
0.5
>>> observed_value("CC(=O)N1CCC[C@@H]1C(=O)N1CCC(c2nc3ccc(-c4ccccc4F)cc3[nH]2)CC1")
0.28
>>> observed_value("N#Cc1ccccc1C(=O)N1CCC(C(=O)Nc2ccn(-c3ccccc3F)n2)CC1")
0.59
>>> observed_value("CC(C)(C)S(=O)(=O)N[C@H]1CC[C@H](c2cc3c(-c4ccccn4)cncc3[nH]2)CC1")
1.3
>>> observed_value("CCC(C)S(=O)(=O)NC[C@H]1CC[C@H](Nc2nc3cc(F)ccc3o2)CC1 (some centres unmarked)")
0.55
>>> observed_value("CC1(c2noc(N[C@H]3CC[C@H](CNS(=O)(=O)C(C)(C)C)CC3)n2)CC(F)(F)C1")
0.8
>>> observed_value("CCS(=O)(=O)NC[C@H]1CC[C@H](Nc2nc(-c3ccc(F)c(F)c3)no2)CC1")
0.22
>>> observed_value("O=C(N[C@H]1CC[C@@H](C(=O)Nc2cccc(-c3ccccc3F)c2)CC1)c1ccon1")
4.1
>>> observed_value("CC(C)S(=O)(=O)NC[C@H]1CC[C@H](Nc2nc3ccc(F)cc3s2)CC1")
0.35
>>> observed_value("CCS(=O)(=O)NC[C@H]1CC[C@H](Nc2nc3ccccc3s2)CC1")
0.92
>>> observed_value("CC(C)n1ccc2cc(NC(=O)C3CCN(C(=O)c4ccccc4C(F)(F)F)CC3)ccc21")
0.48
>>> observed_value("CC(C)(C)S(=O)(=O)NC[C@H]1CC[C@H](Nc2nc3ccc(F)cc3o2)CC1")
0.6
>>> observed_value("O=C(Nc1cccc(-c2ccccc2F)c1)C1CCN(C(=O)c2cc(Cl)ccn2)CC1")
4.28
>>> observed_value("N#Cc1ccc(F)cc1C(=O)N1CCC(C(=O)Nc2cccc(-c3ccccn3)c2)CC1")
0.18
>>> observed_value("CCCn1c(=O)oc2cc(NC[C@H]3CC[C@H](NS(=O)(=O)CC)CC3)ccc21")
1.2
>>> observed_value("CC(C)(C)S(=O)(=O)N[C@H]1CC[C@H](c2[nH]nc(-c3ccccc3)c2C#N)CC1")
0.37
